# Tested on: genotype 1b HCV replicon in Huh-7 cells
# assayExplanation: HCV replicon luciferase assay
# Type: cell-based, HCV genotype 1b
# assaySetup: Hepatitis C virus, 72 h; Huh-7 genotype 1b replicon, Renilla luciferase, 3 days incubation
Items are presented alongside their recorded EC50.
propertyMeasured: EC50 (nM)

{"columns": ["compoundString", "systemName", "measValue"],
 "data": [
  ["CNC(=O)c1c(-c2ccc(F)cc2)oc2ccc(-c3cc(C(=O)NC4(c5ncccn5)CN(C)C4)cc(F)c3C)c(F)c12", "genotype 1b HCV replicon in Huh-7 cells", 820],
  ["CNC(=O)c1c(-c2ccc(F)cc2)oc2ccc(-c3cc(C(=O)NC4(c5ncccn5)CNC4)c(OC)cc3C)c(F)c12", "genotype 1b HCV replicon in Huh-7 cells", 900],
  ["CNC(=O)c1c(-c2ccc(F)cc2)oc2ccc(-c3cc(C(=O)NC4(c5ncccn5)CN(C)C4)ccc3C)c(F)c12", "genotype 1b HCV replicon in Huh-7 cells", 2460],
  ["CNC(=O)c1c(-c2ccc(F)cc2)oc2ccc(-c3cc(C(=O)NC4(c5ncccn5)CNC4)ccc3C)c(F)c12", "genotype 1b HCV replicon in Huh-7 cells", 4330],
  ["CNC(=O)c1c(-c2ccc(F)cc2)oc2ccc(-c3cc(C(=O)NC4(c5ncccn5)CNC4)cc(F)c3C)c(F)c12", "genotype 1b HCV replicon in Huh-7 cells", 390]
]}

---

Items are presented alongside their recorded pIC50.
# systemName: HCV NS5B RdRp, genotype 1b (Hepatitis C virus genotype 1b (isolate Con1) (HCV), UniProt Q9WMX2)
# Sequence (Q9WMX2 2420-2992): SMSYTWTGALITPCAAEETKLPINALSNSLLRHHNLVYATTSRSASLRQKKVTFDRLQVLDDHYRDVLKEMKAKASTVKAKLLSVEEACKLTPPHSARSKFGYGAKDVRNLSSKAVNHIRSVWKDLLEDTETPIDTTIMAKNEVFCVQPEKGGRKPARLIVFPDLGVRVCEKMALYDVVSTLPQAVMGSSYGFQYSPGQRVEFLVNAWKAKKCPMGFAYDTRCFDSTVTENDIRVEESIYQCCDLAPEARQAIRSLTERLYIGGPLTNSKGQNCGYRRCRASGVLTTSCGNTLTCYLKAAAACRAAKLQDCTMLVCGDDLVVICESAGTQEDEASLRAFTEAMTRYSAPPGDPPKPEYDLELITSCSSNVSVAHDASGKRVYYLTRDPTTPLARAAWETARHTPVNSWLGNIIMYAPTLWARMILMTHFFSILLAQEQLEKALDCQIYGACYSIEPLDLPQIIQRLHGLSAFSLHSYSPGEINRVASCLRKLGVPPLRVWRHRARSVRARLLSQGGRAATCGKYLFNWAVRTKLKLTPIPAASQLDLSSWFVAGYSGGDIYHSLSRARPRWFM
# assayExplanation: HCV NS5B RdRp enzyme assay
# Type: biochemical, HCV genotype 1b
pIC50: −log10 of the molar value.

{"columns": ["compoundString", "pIC50"],
 "data": [
  ["CNC(=O)c1c(-c2ccc(F)cc2)oc2ccc(-c3cc(C(=O)NC4(c5ncccn5)CNC4)cc(F)c3C)c(F)c12", 6.48],
  ["CNC(=O)c1c(-c2ccc(F)cc2)oc2ccc(-c3cc(C(=O)NC4(c5ncccn5)CN(C)C4)ccc3C)c(F)c12", 6.11]
]}
